Origin of the recorded values: paper PMC5540273

Tested on: ERK8
Construct: gene MAPK15
SETTINGS: concentration: 1 μM, replicates: in singlicate; n = 1;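 also: KINOMEscan kinase panel screen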

MOLECULE | %Inh
COC(=O)c1c(-c2ccccc2)c2cc(OC)ccc2c(=O)n1Cc1ccccc1 | 0%
COc1cccc(NC(=O)NC2CCN(c3ccnc(Nc4ccc(F)cc4)n3)C2)c1 (stereo not drawn) | 0%
CCn1c(-c2cccnc2O)nc2cnccc21 | 0%
Cc1cccc(-c2cc(Nc3ccncc3)c3ccccc3n2)n1 | 0%
Cl.c1ccc(-c2n[nH]cc2-c2ccnc(-c3ccc(CN4CCOCC4)cc3)c2)nc1 | 0%
CS(=O)(=O)c1ccc(-c2c(-c3ncn[nH]3)sc(N3CCOCC3)c2C#N)cc1 | 10%
Cl.O=C(Nc1cccc(-c2nn3ncccc3c2-c2ccnc(Nc3cccnc3)n2)c1)c1c(F)cccc1F | 28%
COc1ccc(Nc2nccc(-c3cccc(NC(=O)c4cc5cc(F)ccc5[nH]4)c3)n2)cc1 | 0%
Cl.NC(=O)c1cccc(Nc2nccc(Nc3ccc(Oc4cccc(Cl)c4)c(Cl)c3)n2)c1 | 0%
Cc1cccc(-c2nc(Nc3ccncc3)c3ccccc3n2)n1 | 17%
COc1cc2nccc(Nc3ccc(NC(=O)c4ccc(C)cc4)c(O)c3)c2cc1OC.Cl | 1%
Cc1nnc(-c2ccc3occ(-c4ccc(S(C)=O)cc4)c3c2)[nH]1 (stereo not drawn) | 0%
COc1ccccc1CNC(=O)c1cc(C(=O)c2ccccc2C)c[nH]1 | 0%
COc1ccc(CNC(=O)NC2CCN(c3ccnc(Nc4cc(OC)c(OC)c(OC)c4)n3)C2)cc1 (stereo not drawn) | 0%
Cc1c(O)cccc1Nc1ccnc2ccc(C(F)(F)F)cc12.Cl | 8%
C[C@@H]1CCCCN1c1cc(-c2ccc3c(N)n[nH]c3c2)nc(N)n1 | 0%
Cc1ccc(NC(=O)Nc2cccc(Cl)c2)cc1-c1ccc(C(=O)Nc2ccncc2)cc1 | 0%
COC(=O)c1c(-c2ccccc2)c2cc(C(=O)O)ccc2c(=O)n1Cc1ccccc1 | 0%
Cc1cccc(-c2nc(C)cc(Nc3ccncc3)n2)n1 | 0%
Cc1cc(NCC(c2ccccc2)c2ccccc2)nc(NCc2ccc(C(F)(F)F)cc2)n1 | 0%
Cn1ccc2ncnc(Oc3ccc(Nc4nc5ccccc5[nH]4)cc3)c21 | 0%
Cc1cccc(-c2nc(Nc3ccc4[nH]ncc4c3)c3ccccc3n2)n1 | 21%
COc1cc(Nc2nccc(N3CCC(NC(=O)Nc4cc(C)ccc4C)C3)n2)cc(OC)c1OC (stereo not drawn) | 41%
CN1C(=O)C(Nc2ccc(Cl)c(C(=O)O)c2)=C(c2ccc(Cl)cc2)C1=O | 0%
O=S(=O)(c1ccc(-c2ccnc3[nH]ccc23)cc1)N1CCCC1 | 0%
Nc1ncnc2[nH]c(-c3ccccc3)nc12 | 31%
Clc1cc(Cl)cc(Nc2ccnc(Nc3cc(Cl)cc(Cl)c3)n2)c1 | 0%
Cc1cccc(-c2nc(Nc3cccc(C(N)=O)c3)c3ccccc3n2)n1 | 11%
CC(C)(C)c1ccc(C(=O)Nc2cn3cc(Cl)ccc3n2)cc1 | 0%
O=C(Nc1n[nH]c2cc(-c3cccc(F)c3F)ccc12)C1CC1 | 28%

----------
System: CDK4
SETTINGS: concentration: 1 μM, replicates: in singlicate; n = 1
MEASUREMENT KIND: %Inh (%)

COMPOUND | TESTED ON | MEASUREMENT KIND | MEASUREMENT UNIT | EXPERIMENTAL VALUE
Cn1cncc1-c1ccc2ncnc(Nc3ccc(OCc4ccccc4)cc3)c2c1 [GW320571] | CDK4 | %Inh | % | 0
Fc1cc(Cl)ccc1Nc1ccnc2cc(-c3ccc(CN4CCCCC4)o3)ccc12 [GW560116] | CDK4 | %Inh | % | 35
Clc1cc(Cl)cc(Nc2ccnc(Nc3cc(Cl)cc(Cl)c3)n2)c1 [GSK175726] | CDK4 | %Inh | % | 11
Cc1cccc(-c2nc(C)cc(Nc3ccncc3)n2)n1 [GSK257997] | CDK4 | %Inh | % | 28
Cc1cc(NCC(c2ccccc2)c2ccccc2)nc(NCc2ccc(C(F)(F)F)cc2)n1 [GW497681] | CDK4 | %Inh | % | 0
CCCc1ccc(S(=O)(=O)NC2CCN(c3ccnc(Nc4ccc(F)cc4)n3)C2)cc1 (stereo not shown) [GSK1379715] | CDK4 | %Inh | % | 0
Cc1cccc(-c2nc(Nc3cccc(C(N)=O)c3)c3ccccc3n2)n1 [GW876019] | CDK4 | %Inh | % | 0
CC1=C(C(=O)Nc2cc3cn[nH]c3cc2F)C(c2ccc(C(F)(F)F)cc2)CC(=O)N1 (stereo not shown) [GSK429286] | CDK4 | %Inh | % | 11
COC(=O)c1c(-c2ccccc2)c2cc(C(=O)O)ccc2c(=O)n1Cc1ccccc1 | CDK4 | %Inh | % | 0
COc1cccc(-c2cc(-c3c[nH]nc3-c3ccccn3)ccn2)c1 [GW680338] | CDK4 | %Inh | % | 31
Nc1ncnc2[nH]c(-c3ccccc3)nc12 [AH5015] | CDK4 | %Inh | % | 7
COc1cc2ncn(-c3cc(OCC4CCCO4)c(C(N)=O)s3)c2cc1OC (stereo not shown) [GSK204607] | CDK4 | %Inh | % | 13
Cc1c(Cn2ccn3c(=O)cc(N4CCOCC4)nc23)cccc1C(F)(F)F [GSK2289044] | CDK4 | %Inh | % | 4
Cc1ccc(NC(=O)Nc2cc(C(C)(C)C)nn2-c2ccccc2)cc1 [GSK1014915] | CDK4 | %Inh | % | 0
CC(C)(C)c1ccc(C(=O)Nc2cn3cc(Cl)ccc3n2)cc1 | CDK4 | %Inh | % | 0
O=S(=O)(c1ccc(-c2ccnc3[nH]ccc23)cc1)N1CCCC1 [GSK846226] | CDK4 | %Inh | % | 0
Nc1nc(-c2nccs2)c(-c2ccnc3ccccc23)s1 [GW693542] | CDK4 | %Inh | % | 15
O=C(Nc1n[nH]c2nc(-c3nccs3)c(Br)cc12)C1CC1 [SB-742251] | CDK4 | %Inh | % | 44
COc1ccc(Nc2nccc(NCCNC(=O)Nc3ccccc3F)n2)cc1 [GSK1379901] | CDK4 | %Inh | % | 0

----------
Tested on: SLK
SETTINGS: concentration: 1 μM, replicates: in singlicate; n = 1

MOLECULAR STRING | %Inh / %
O=C(Nc1n[nH]c2cc(-c3cccc(F)c3F)ccc12)C1CC1 | 0
Cl.Oc1ccc(-c2nc(-c3ccccc3)[nH]c2-c2ccncc2)cc1 | 28
C[C@@H]1CCCCN1c1cc(-c2ccc3c(N)n[nH]c3c2)nc(N)n1 | 0
O=C(Nc1ccccc1)Nc1cccc(Oc2ccc3nccn3n2)c1 | 12
Cn1ccc2ncnc(Oc3ccc(Nc4nc5ccccc5[nH]4)cc3)c21 | 14

----------
System: PHKG1
SETTINGS: concentration: 1 μM, replicates: in singlicate; n = 1
Quick reference: %Inh of the listed items.

MOLECULE | MEASUREMENT UNIT | %Inh
CS(=O)(=O)c1ccc(-c2nc3n(c2-c2ccncc2)CCC3)cc1 [SKF-105942] | % | 3
Clc1cc(Cl)cc(Nc2ccnc(Nc3cc(Cl)cc(Cl)c3)n2)c1 [GSK175726] | % | 0
Cc1c(Cn2ccn3c(=O)cc(N4CCOCC4)nc23)cccc1C(F)(F)F [GSK2289044] | % | 0
Cc1cc(N2Cc3ccccc3C2)nc(Nc2ccc(S(=O)(=O)N3CCOCC3)cc2)n1.Cl [GSK1669917] | % | 14
Cc1ccc(NC(=O)Nc2cccc(Cl)c2)cc1-c1ccc(C(=O)Nc2ccncc2)cc1 [GSK1398468] | % | 0
O=S(=O)(c1ccc(-c2ccnc3[nH]ccc23)cc1)N1CCCC1 [GSK846226] | % | 0
O=C(Nc1n[nH]c2nc(-c3nccs3)c(Br)cc12)C1CCCC1 [SB-742609] | % | 0
Cn1ccc2ncnc(Oc3ccc(Nc4nc5ccccc5[nH]4)cc3)c21 | % | 0
CSc1nn2c(=O)cc(N3CCOCC3)nc2n1Cc1cccc(C(F)(F)F)c1C [GSK2363608] | % | 0

----------
Test system: FLT4
SETTINGS: concentration: 1 μM, replicates: in singlicate; n = 1

MOLECULE | %Inh / %
COc1cccc(NC(=O)NC2CCN(c3ccnc(Nc4ccc(F)cc4)n3)C2)c1 (stereo not shown) | 0
Cn1cncc1-c1ccc2ncnc(Nc3ccc(OCc4ccccc4)cc3)c2c1 | 6
Cn1ccc2ncnc(Oc3ccc(Nc4nc5ccccc5[nH]4)cc3)c21 | 0
Cc1ccc(NC(=O)Nc2cccc(Cl)c2)cc1-c1ccc(C(=O)Nc2ccncc2)cc1 | 18

----------
Test system: CAMK4
SETTINGS: concentration: 1 μM, replicates: in singlicate; n = 1

MOLECULE | %Inh
O=C(O)COc1ncnc2cc(-c3ccc4[nH]ncc4c3)sc12 | 7%
CS(=O)(=O)c1ccc(-c2c(-c3ncn[nH]3)sc(N3CCOCC3)c2C#N)cc1 | 18%
Nc1ncnc2[nH]c(-c3ccccc3)nc12 | 0%
O=S(=O)(c1ccc(-c2ccnc3[nH]ccc23)cc1)N1CCCC1 | 0%
Cc1nnc(-c2ccc3occ(-c4ccc(S(C)=O)cc4)c3c2)[nH]1 (stereo not shown) | 0%
CCn1c(-c2cccnc2O)nc2cnccc21 | 0%
COc1cc2nccc(Nc3ccc(NC(=O)c4ccc(C)cc4)c(O)c3)c2cc1OC.Cl | 0%
Clc1cc(Cl)cc(Nc2ccnc(Nc3cc(Cl)cc(Cl)c3)n2)c1 | 0%
Cn1ccc2ncnc(Oc3cccc(C(=O)Nc4ccccc4)c3)c21 | 0%
Fc1cc(Cl)ccc1Nc1ccnc2cc(-c3ccc(CN4CCCCC4)o3)ccc12 | 0%
Cc1csc(-c2nc(Nc3ccncc3)c3ccccc3n2)n1 | 0%
CC1=C(C(=O)Nc2cc3cn[nH]c3cc2F)C(c2ccc(C(F)(F)F)cc2)CC(=O)N1 (stereo not shown) | 0%
Cl.NC(=O)c1cccc(Nc2nccc(Nc3ccc(Oc4cccc(Cl)c4)c(Cl)c3)n2)c1 | 0%
O=C(Nc1ccccc1)Nc1cccc(Oc2ccc3nccn3n2)c1 | 7%
COc1cccc(-c2cc(-c3c[nH]nc3-c3ccccn3)ccn2)c1 | 0%
CC(=O)Nc1nc2cnc(Nc3cc(NC(=O)c4cccc(CCC#N)c4)ccc3C)nc2s1 | 15%
Cc1ccccc1-n1cnc2c(N)ncnc21 | 0%
C[C@@H]1CCCCN1c1cc(-c2ccc3c(N)n[nH]c3c2)nc(N)n1 | 0%
O=C(Nc1n[nH]c2nc(-c3nccs3)c(Br)cc12)C1CCCC1 | 0%
